- Target Entity: BCRP (Homo sapiens (Human))
- Sequence (Q9UNQ0 whole entry): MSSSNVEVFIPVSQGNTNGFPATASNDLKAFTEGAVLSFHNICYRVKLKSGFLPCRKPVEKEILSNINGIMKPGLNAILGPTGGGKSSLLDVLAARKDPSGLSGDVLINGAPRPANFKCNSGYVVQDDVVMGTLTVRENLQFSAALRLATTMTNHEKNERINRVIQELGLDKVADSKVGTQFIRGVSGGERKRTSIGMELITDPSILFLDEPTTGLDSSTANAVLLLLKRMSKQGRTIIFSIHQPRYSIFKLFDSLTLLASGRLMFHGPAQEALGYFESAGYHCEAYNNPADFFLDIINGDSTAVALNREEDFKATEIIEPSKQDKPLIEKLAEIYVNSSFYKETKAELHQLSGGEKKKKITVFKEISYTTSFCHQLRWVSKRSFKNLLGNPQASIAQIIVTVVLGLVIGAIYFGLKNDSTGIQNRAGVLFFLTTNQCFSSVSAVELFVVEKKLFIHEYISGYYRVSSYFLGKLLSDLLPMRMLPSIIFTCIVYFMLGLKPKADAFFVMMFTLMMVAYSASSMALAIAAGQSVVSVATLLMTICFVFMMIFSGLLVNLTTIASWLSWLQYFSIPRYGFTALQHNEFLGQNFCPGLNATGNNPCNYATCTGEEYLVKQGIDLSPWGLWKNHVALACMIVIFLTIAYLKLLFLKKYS
- Protocol Summary: BCRP MDCKII efflux assay (Assay 7)
- Format: in vitro ADME
- Protocol Conditions: dog; efflux ratio Papp(B-A)/Papp(A-B), BCRP MDCKII cells; read-out: Assay 7 Pe Ratio
Attribute Measured: efflux ratio at 2 h, 1 µM

Example entries begin here.
Compound	Test Result
C=CC(=O)N1C[C@H]2C[C@@H]1[C@H](c1ccc3ncnc(Nc4cc(C)c(Oc5cnc6c(c5)ncn6C)cc4F)c3n1)C2	2
C=CC(=O)N1CCN(c2ccc3ncnc(Nc4cc(C)c(Oc5cnc6c(c5)ncn6C)cc4F)c3n2)C[C@H]1C1CC1	4.8
C=CC(=O)N1CCCC(c2ccc3ncnc(Nc4ccc(Oc5ccc6c(c5)ncn6C)c(C)c4)c3n2)CC1 (stereo not shown)	4
C=CC(=O)N1CCC2CN(c3ccc4ncnc(Nc5ccc(Oc6ccn7ncnc7c6)c(Cl)c5)c4n3)CC21 (stereo not shown)	41.8
C=CC(=O)N1CCC(c2ccc3ncnc(Nc4ccc(Oc5ccc6c(c5)ncn6C)c(C)c4)c3n2)CC1C (stereo not shown)	7.3

I = C=CC(=O)N1CC2(C1)CN(c1ccc3ncnc(Nc4ccc(Oc5ccn6ncnc6c5)c(Cl)c4F)c3n1)C2
II = C=CC(=O)N(C)[C@H]1CCN(c2ccc3ncnc(Nc4cc(C)c(Oc5ccn6ncnc6c5)cc4F)c3n2)C1
When I and II are compared, which has the higher number for efflux ratio at 2 h, 1 µM? Identify your pick by its label.
II
